Assay: Effect of organic solvent ratio variation on solubility
Assay type: physicochemical
Details: propylene glycol/ethanol/normal saline mixture, aqueous with cosolvent or surfactant or cyclodextrin, PG 38 / EtOH 9 / normal saline 53 (%, w/v)

compound: C=C/C=C\C(C)[C@H](OC(N)=O)[C@@H](C)[C@H](O)[C@@H](C)C/C(C)=C\C(C)C(O)[C@@H](C)/C=C\[C@@H](O)C[C@@H]1OC(=O)[C@H](C)C(O)C1C (single isomer, unassigned; (+)) [discodermolide, (+)-Discodermolide]
solubility / µg/mL: 640

---

Experiment: Solubility of discodermolide in various solvent systems measured by HPLC
Type: physicochemical
Settings: 20% PEG 300/80% normal saline, aqueous with cosolvent or surfactant or cyclodextrin

compound: C=C/C=C\C(C)[C@H](OC(N)=O)[C@@H](C)[C@H](O)[C@@H](C)C/C(C)=C\C(C)C(O)[C@@H](C)/C=C\[C@@H](O)C[C@@H]1OC(=O)[C@H](C)C(O)C1C (single isomer, unassigned; (+)) [discodermolide, (+)-Discodermolide]
solubility: 20 µg/mL
